Test system: MS2 coat protein
Assay: apparent KD of MS2 coat protein, switch OFF state (with FMN for OFF switches, without FMN for ON switches); designed switch direction (-1 OFF switch, 1 ON switch): 1; higher = weaker reporter binding
Settings: FMN input: 0 or 200 uM; Eterna round: R93 (includes R88 designs)
// reported apparent KD of MS2 coat protein for each item listed
Lab book: enter the figure in µM, no units written.

Worked cases, answers included:
1) UUUCAUUACACGAAGGAUAUCGCUUUUCAGACAUGAGGAUCACCCAUGUAGUAGAUUUCCCUGUUCGAGAAGGUCGCGGGUGAAC [JR_SS002_Sub603] : 0.0704
2) AAUAUAUUAAGUGAGGAUAUCAUAGGAAAAACAUGAGGAUCACCCAUGUGGGAAACCUGGUCGGGUGAGAAGGCACUUAAUAUAU [Samwise Clockwise 30 - Jieux - Same State 2] : 0.217
3) AAAUAAAUGACUGAGGAUAUAUCGAUGAAAACAUGAGGAUCACCCAUGUGAUAAUAAAAAGGGUGGUAGAAGGUAGUCAACAAAC [Mod 12 of Pariah 4 by Hyphema in Round 1] : 0.207
4) AAAAAAAGAUCACAGGAUAUACGAAAAAAAACAUGAGGAUCACCCAUGUAAAAAAAAAAAAAAAAGUAGAAGGGUGAUCCAAAAAA : 0.011
5) AAGAAACAUGAGGAUCACCCAUGUAAGAUAAACACAGGAUAUGCGAAAAGAAAUAAAGAAGCAGAAGGGUGAAGAA [Mat - Same State 1 - Tesla mod - 63] : 0.0543

query: Give measured apparent KD of MS2 coat protein for GAAAAACAUGAGGAUCACCCAUGUACAAAUAUGGAAGGAUAUACGAUGACGAAAGUCAAAGUAGAAGGUCUAAAAG [Garnet 98] (MS2 coat protein).
result: 0.0254

----------
Tested on: MS2 coat protein
Assay: apparent KD of MS2 coat protein; designed switch direction (-1 OFF switch, 1 ON switch): 1; higher = weaker reporter binding
Settings: input ligand: microRNA oligo, concentration not stated
// reported apparent KD of MS2 coat protein for each item listed
Lab book: enter the figure in nM, no units written.

Worked cases, answers included:
1. CUCCUAUCGGGAGGAUAUGGUGCCUUGUUGGUGCUAGAAGGUCCAACAUGAGGAUCACCCAUGUGGGAGUGGUUGAGAGACCUC [SS NG10LRO13] (Eterna round: R96, puzzle: Same State NG 1) : 105
2. AGAUGUUAAUCAGGAUAUGGGCCCGUGAGGAUCACCCACGGAAAGUAGGUCCAACAGGGCCCAGUCUAGAAGGGAUGGCUAACA [malcolm 80 ssNG2 F5+F7.2] (Eterna round: R96, puzzle: Same State NG 2) : 19.8

Lab note: next sequence to report on.
query: Give measured apparent KD of MS2 coat protein for GGCUGUUAAUUAGGAUAUGGUCACAUGAGGAUCACCCAUGUAACGAUGAUACGAUGUGGUCAAGACUAGAAGGGAUCGCUAACA [SameState NG2 #71] (Eterna round: R96, puzzle: Same State NG 2) (MS2 coat protein).
result: 128

----------
Tested on: MS2 coat protein
Assay: apparent KD of MS2 coat protein; designed switch direction (-1 OFF switch, 1 ON switch): -1; higher = weaker reporter binding
Settings: input ligand: none
experimental.readout: apparent KD of MS2 coat protein (nM)
Lab book: enter the figure in nM, no units written.

query: Give measured apparent KD of MS2 coat protein for GCACGGAUCGUAGGAUAUCAUUGCGAUUAGCUAUGAGAAGGACGACAUGAGGAUCACCCAUGUCCUCUAAUUAGCCUUCCGUGC [Eli exng1 - 017] (Eterna round: R96, puzzle: Exclusion NG 1) (MS2 coat protein).
result: 38.5

query: Give measured apparent KD of MS2 coat protein for UACAUGAGGAUCACCCAUGUUUUGUCGUGUAUGGUAUUUAUCUAGGAUAUCAUUUAAUUUAUUUAUGAGAAGGAGAAUAUUAAU [JMF's solution 99] (Eterna round: R96, puzzle: Exclusion NG 3) (MS2 coat protein).
result: 31.1
